This collection of values is drawn from ChEMBL document CHEMBL1124692.

test: Displacement [3H]LY-186,126 from phosphodiesterase 4 of myocardial vesicles; type: tissue-based, Canis lupus familiaris, Myocardium
Reported Metric: Ki (nM)
The reply should contain only the number, in nM.

Enquiry: Answer with the recorded Ki of `O=C1CCC(c2ccc3c(c2)CCC(=O)N3)=NN1` only.
Return: 2.5
